// values below are reported pKd
- Target: SMARCA2B (Homo sapiens, UniProt P51531)
- Sequence (P51531 1-1572 isoform P51531-2): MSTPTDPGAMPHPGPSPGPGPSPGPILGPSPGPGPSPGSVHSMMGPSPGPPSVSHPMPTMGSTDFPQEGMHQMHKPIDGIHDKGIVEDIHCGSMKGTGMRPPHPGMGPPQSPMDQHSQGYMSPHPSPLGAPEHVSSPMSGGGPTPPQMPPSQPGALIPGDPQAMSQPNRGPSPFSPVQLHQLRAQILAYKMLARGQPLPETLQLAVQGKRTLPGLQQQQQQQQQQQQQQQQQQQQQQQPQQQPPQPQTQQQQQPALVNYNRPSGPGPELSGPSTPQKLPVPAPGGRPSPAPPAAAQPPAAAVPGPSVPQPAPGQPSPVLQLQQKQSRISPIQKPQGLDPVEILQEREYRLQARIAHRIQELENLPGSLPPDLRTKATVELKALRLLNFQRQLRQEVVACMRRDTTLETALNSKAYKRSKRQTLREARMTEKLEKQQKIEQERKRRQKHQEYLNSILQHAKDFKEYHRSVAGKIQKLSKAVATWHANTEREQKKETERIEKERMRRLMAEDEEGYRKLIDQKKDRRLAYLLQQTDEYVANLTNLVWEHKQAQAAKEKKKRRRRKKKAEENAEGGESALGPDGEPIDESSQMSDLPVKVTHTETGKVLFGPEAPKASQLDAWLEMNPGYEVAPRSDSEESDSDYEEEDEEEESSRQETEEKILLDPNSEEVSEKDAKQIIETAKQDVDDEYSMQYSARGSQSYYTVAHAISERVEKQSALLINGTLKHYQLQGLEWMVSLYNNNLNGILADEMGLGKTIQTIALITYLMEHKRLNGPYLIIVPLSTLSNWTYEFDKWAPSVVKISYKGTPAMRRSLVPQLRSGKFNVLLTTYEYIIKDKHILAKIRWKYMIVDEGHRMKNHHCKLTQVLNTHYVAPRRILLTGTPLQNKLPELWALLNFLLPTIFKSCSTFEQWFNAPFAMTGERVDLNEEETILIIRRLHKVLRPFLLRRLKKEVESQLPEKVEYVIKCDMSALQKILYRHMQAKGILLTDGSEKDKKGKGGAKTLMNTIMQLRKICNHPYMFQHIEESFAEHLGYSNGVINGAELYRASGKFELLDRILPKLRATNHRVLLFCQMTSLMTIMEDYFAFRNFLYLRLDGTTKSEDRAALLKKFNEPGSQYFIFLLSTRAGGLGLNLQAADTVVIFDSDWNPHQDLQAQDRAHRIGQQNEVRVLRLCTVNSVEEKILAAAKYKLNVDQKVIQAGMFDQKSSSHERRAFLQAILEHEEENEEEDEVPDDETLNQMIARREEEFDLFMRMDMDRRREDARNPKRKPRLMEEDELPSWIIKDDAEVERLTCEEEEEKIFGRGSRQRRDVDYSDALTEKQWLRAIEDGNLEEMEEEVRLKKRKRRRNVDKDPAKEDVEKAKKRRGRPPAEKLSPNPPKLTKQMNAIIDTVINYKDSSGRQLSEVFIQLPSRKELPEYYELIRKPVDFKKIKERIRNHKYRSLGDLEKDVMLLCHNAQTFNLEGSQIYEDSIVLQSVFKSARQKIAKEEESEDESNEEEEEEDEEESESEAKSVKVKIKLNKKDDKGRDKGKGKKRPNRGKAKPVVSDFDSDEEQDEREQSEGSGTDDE
- Experiment: bromoSCAN
The quantity pKd is defined as the negative base-10 logarithm of the molar concentration.

Lab note: CCC(CC)C1CC12CCn1c2nc(=O)c2c(Cl)cccc21 (centres unmarked) gave pKd of 5.68

Would you kindly look at the next entry?
Lab note: `CCC(/C=C1\CCCn2c1nc(=O)c1c(Cl)cccc12)CC` gave pKd of 4.59

* * *

- Target: PB1(2) (Homo sapiens, UniProt Q86U86)
- Sequence (Q86U86 177-287 limits assumed): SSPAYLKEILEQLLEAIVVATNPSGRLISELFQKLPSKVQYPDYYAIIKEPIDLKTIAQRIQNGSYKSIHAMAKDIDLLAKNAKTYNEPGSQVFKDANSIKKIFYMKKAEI
- Experiment: bromoSCAN
// values below are reported Kd
Give your result in µM as a bare value.

Lab note: `CCC(/C=C1\CCCn2c1nc(=O)c1c(Cl)cccc12)CC` gave Kd of 5.4

Further cases:
Lab note: CCC(CC)C1CC12CCn1c2nc(=O)c2c(Cl)cccc21 (centres unmarked) gave Kd of 0.11

The origin of these recorded values is paper PMC8387997.
